# System: PRMT1 (protein arginine N-methyltransferase 1)
# protocol.summary: PRMT1 binders on small-molecule microarrays, primary screen, biochemical, small-molecule microarray, 635 nm fluorescence (AID 1088);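 note: binding of Prmt1 protein to compounds spotted on small-molecule microarray slides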
# assay.conditions: small-molecule microarray binding, higher = more signal
Kind request: treat -0.07 as inclusive, so composite z-score at -0.07 or higher is 1, anything lower is -1.

Is it the case that COCCNC(=O)OCC1CCCC2(CC(OC(=O)NCCc3ccc(F)cc3)CC(CCC(=O)N[C@@H](C)C(=O)OC)O2)O1 (some centres not stated) has composite z-score reaching or exceeding -0.07?
1

Identify whether the reported composite z-score of the following molecule is -0.07 or greater: CC(CCC(=O)OC[C@H]1O[C@H](C#Cc2ccccc2)C=C[C@@H]1Oc1ccc(C)cc1)=NOC[C@@H](O)COCc1ccco1
-1

I'd appreciate it if you could say whether CO[C@H]([C@@H](C)[C@H](OC)c1ccccc1)[C@H](C)[C@@H](OC)[C@H](C)C(C)=O has composite z-score at least equal to -0.07.
-1

I'd appreciate it if you could say whether COc1ccccc1CN1C(=O)c2ccccc2[C@@]2(Cc3ccccc3N(C(C)C)C2=O)[C@@H]1c1ccc(CO)cc1 has composite z-score at least equal to -0.07.
1

Has COc1ccc(OC[C@H]2Cc3c(-c4ccccc4)nc4c(c3CO2)CN(CCOc2ccccc2)CC4)cc1 a recorded composite z-score greater than or equal to -0.07?
1

Please check the record CC(=O)O[C@H]1C2=C(C(=O)[C@@H]3O[C@@H]31)[C@H]1C(C)O[C@@H]2[C@@]23C(=O)[C@@H]4O[C@@H]4[C@@H](O)C2=CO[C@H](C)[C@@H]13 (some centres not stated) and state if its composite z-score is at or above -0.07.
1

###

# protocol.summary: small-molecule binders of probe aNOTCH2, primary screen, biochemical, small-molecule microarray, 635/667 nm fluorescence (AID 1121);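 note: score merges feature fluorescence read at 667 nm with its signal to noise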
# assay.conditions: higher = more signal
parameter.measured: composite z-score

Recorded composite z-score of CC(C)NC(=O)[C@@]1(C)c2ccccc2C(=O)N(Cc2cc(F)cc(C(F)(F)F)c2)[C@H]1c1ccc(CO)cc1 , please.
-0.102

Give its composite z-score value. Item: O=C1O[C@@H](c2ccccc2)[C@@H](c2ccccc2)N2[C@@H](c3ccc(OCCO)cc3)[C@]3(C(=O)Nc4ccc(C#CCCO)cc43)[C@@H](C(=O)N3CCCCCCC3)[C@H]12
0.745

Given the entry COC(=O)C1(C)C=C2C(=C(c3ccccc3)C(=O)C2C)CN1 (stereo not drawn) , report its measured composite z-score.
0.0633

Requested field: composite z-score. Item: CC(C)CON=C1C[C@@H](O)[C@@H](O)[C@@H]2[C@@H]3C(=O)N(C[C@@H]4CCCO4)C(=O)[C@@H]3CC[C@H]12
-0.0659

Record request: composite z-score value, item c1ccc(C2NCCc3c2[nH]c2ccccc32)cc1 (stereo not drawn)
-0.053

Report composite z-score for CC(CCN1CCc2nc(-c3ccccc3)c(-c3ccccc3)cc2C1)=NOC[C@@H](C)[C@H](OCc1ccccc1)C(C)C please.
-0.177

Request the reported composite z-score associated with COCCCNC(=O)[C@@]1(C)c2ccccc2C(=O)N(Cc2ccc(OC(F)(F)F)cc2)[C@H]1c1ccc(CO)cc1
-0.0836

Can you look up the measured composite z-score of CO[C@@H]1COC(=O)CC=C[C@@H](C)COC(=O)[C@H](COCc2ccccc2)NC(=O)CC=C[C@H]1C for me?
-0.108

Find the recorded composite z-score belonging to CCOC(=O)[C@H](CC(C)C)NC(=O)CCC1CC(OC(=O)NCc2cccc3ccccc23)CC2(CCCC(COC(=O)NCCN3CCOCC3)O2)O1 (stereo partly drawn) and report it.
-0.19

What measured composite z-score goes with CC(=O)OC[C@H]1O[C@H](CC=NOC[C@@H](C)[C@H](OCc2ccccc2)C(C)C)C=C[C@@H]1OC(C)=O ?
-0.11

Consider the compound shown here: COc1ccc(-c2ccc3c(n2)CCCN3CC(O)CN2CCCc3nc(C)c(C)cc32)cc1 (stereo not drawn) What is its recorded composite z-score?
-0.0017

Entry CCCNC(=O)[C@@H]1c2ccccc2C(=O)N(Cc2ccccc2Cl)[C@H]1c1ccc(CO)cc1 has what composite z-score?
-0.0631

Entry under review: C[C@@H](c1ccccc1)N1C(=O)[C@H]2[C@H]3[C@H](O)C=CC(=O)[C@@H]3CC[C@H]2C1=O . Reported composite z-score?
-0.132

What value of composite z-score has been recorded for this entry: CC(CCN1CCc2nc(-c3ccccc3)c(-c3ccccc3)cc2C1)=NO[C@@H](C)c1cn([C@H](CO)Cc2ccccc2)nn1
-0.117

Data request, read-out composite z-score, for COC(=O)[C@@H]1CC[C@H](C)[C@@H](c2ccc(C)cc2)N1C(=O)c1ccc(C=NOC[C@@H](O)COCc2ccco2)cc1
-0.195

May I ask what composite z-score has been recorded for CCOC(=O)C1=CCC(c2cc3ccccc3[nH]2)NC1 (stereo not drawn) ?
0.069

Could you share which composite z-score value was measured for COc1ccc([Si](C)(C)[C@H]2[C@H](CC(=O)N3CCC[C@H]3CO)O[C@@]3(C(=O)N(Cc4cccc(N5C(=O)COc6ccccc65)c4)c4ccccc43)[C@@H]2C)cc1 ?
-0.0556

Please report the recorded composite z-score for CCOC(=O)C[C@H]1[C@H](OC(=O)c2cc3ccccc3oc2=O)[C@@H](NC(=O)c2ccc3ccccc3n2)c2cc(OCCCO)ccc2N1C(=O)c1ccccc1 .
-0.0424

Need composite z-score of CCOC(=O)[C@H](Cc1ccccc1)NC(=O)CCC1CC(OC(=O)NCc2ccc3c(c2)OCO3)CC2(CCCC(COC(=O)NCC(c3ccccc3)c3ccccc3)O2)O1 (stereo partly drawn) , thanks.
-0.11

Consider the compound shown here: COc1ccccc1CN1C(=O)c2ccccc2[C@@H](C(=O)NCC(F)(F)F)[C@@H]1c1ccc(CO)cc1 What is its recorded composite z-score?
-0.167

Form field: reported composite z-score of Cn1c(=O)n2n(c1=O)[C@H]1[C@H](O)[C@@H]3O[C@@H]3C(=NOC[C@@H](O)COCc3ccco3)[C@H]1CC2
-0.208

Field request: composite z-score | item: COC(=O)CC=C[C@@H](C)[C@H](OC)c1ccccc1Br
-0.0684

What does the record list as composite z-score for O=C1c2ccccc2[C@@]2(Cc3ccccc3N(C3CC3)C2=O)[C@H](c2ccc(CO)cc2)N1Cc1ccccc1C(F)(F)F ?
-0.0248

###

Would you mind telling me the reported composite z-score of each entry?
# target.entity: Torsin-1A-interacting protein 1 (Homo sapiens) (UniProt Q5JTV8)
# Sequence (Q5JTV8 whole entry, looked up): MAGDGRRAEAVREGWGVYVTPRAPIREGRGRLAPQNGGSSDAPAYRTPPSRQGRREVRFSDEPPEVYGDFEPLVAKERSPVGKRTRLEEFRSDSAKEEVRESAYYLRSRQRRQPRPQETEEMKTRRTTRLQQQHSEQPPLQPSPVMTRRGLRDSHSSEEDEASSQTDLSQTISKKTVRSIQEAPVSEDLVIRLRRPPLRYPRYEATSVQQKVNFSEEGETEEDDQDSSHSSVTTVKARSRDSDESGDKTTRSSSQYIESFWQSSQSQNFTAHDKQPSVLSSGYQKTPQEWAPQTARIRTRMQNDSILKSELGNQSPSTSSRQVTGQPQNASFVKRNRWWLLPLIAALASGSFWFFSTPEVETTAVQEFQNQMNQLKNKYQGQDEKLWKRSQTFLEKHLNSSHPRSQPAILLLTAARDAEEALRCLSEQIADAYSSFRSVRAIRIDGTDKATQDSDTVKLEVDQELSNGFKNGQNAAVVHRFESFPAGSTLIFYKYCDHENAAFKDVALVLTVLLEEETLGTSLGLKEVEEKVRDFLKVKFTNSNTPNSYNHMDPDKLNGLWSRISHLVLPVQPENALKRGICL
# protocol.summary: LAP1 binders from COS7 cell lysate, primary screen, small-molecule microarray, 635/667 nm fluorescence (AID 1116)
# assay.conditions: COS7-hLAP1 lysate binding, 635 nm fluorescence, higher = more signal
Output: the number by itself.

Param readout= composite z-score; system= Torsin-1A-interacting protein 1 (Homo sapiens) (UniProt Q5JTV8); entry= COCCOC(=O)N1C(=O)[C@@]2(c3cc(C#Cc4ccc(OC)cc4)ccc31)[C@H](c1ccc(O)cc1)N1[C@H](c3ccccc3)[C@H](c3ccccc3)OC(=O)[C@H]1[C@@H]2C(N)=O ; returns value.
0.743

Lab note: need composite z-score with Torsin-1A-interacting protein 1 (Homo sapiens) (UniProt Q5JTV8) for entry O=C1O[C@@H](c2ccccc2)[C@@H](c2ccccc2)N2[C@@H](c3ccccc3OCCO)[C@]3(C(=O)Nc4ccc(C#CCCO)cc43)[C@@H](C(=O)O)[C@H]12 , please look it up.
1.17

Please provide the recorded composite z-score for C=CC[C@@H]1C=C[C@H](ON=C(C)CCN2CCc3nc(CC)c(CC)cc3C2)[C@@H](CO)O1 , tested on Torsin-1A-interacting protein 1 (Homo sapiens) (UniProt Q5JTV8).
0.779

# returns recorded composite z-score (system: Torsin-1A-interacting protein 1 (Homo sapiens) (UniProt Q5JTV8)) for COc1ccc(COC(=O)NN=C2C[C@@H](O)[C@@H](O)[C@@H]3[C@@H]4C(=O)N(Cc5ccc6c(c5)OCO6)C(=O)[C@@H]4CC[C@@H]23)cc1
0.508

###

# protocol.summary: PSAC antagonists in infected red cells, primary screen, cell-based, P. falciparum Indochina, OD700, 2 h (AID 1155);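 note: lysis reports solute entry through the parasite surface anion channel PSAC; channel blockers reduce lysis of infected cells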
# assay.conditions: P. falciparum Indochina infected erythrocytes, osmotic lysis OD700, called active from +8 up or from −8 down
Active and inactive are the calls of the source.
Your reply should match one of these outcome classes. active, inactive

Would you mind telling me which call this test gave Cc1ccc(S[C@]2(C(=O)NCC(F)(F)F)CC(=O)N(Cc3ccccc3Cl)[C@@H]2c2ccc(CO)cc2I)cc1 ?
inactive

// param item: COC(=O)CC=C[C@@H](C)[C@@H](C=NO[C@H](C)c1cn([C@@H]2COC[C@H]2O)nn1)OC ; yields the recorded call
inactive

// return assay outcome for COc1ccc(O[C@H]2C=C[C@@H](c3ccccc3)O[C@@H]2COC(=O)CCC(C)=NO[C@@H](C)c2cc(-c3c(C)cc(C)cc3C)no2)cc1
inactive

# fetch the recorded call for COc1ccc(O[C@@H]2[C@H](O)CO[C@H]2C=CC#Cc2ccccc2)cc1 here
inactive

I'd appreciate the recorded outcome for CC(CCC(=O)OC[C@H]1O[C@H](C#Cc2ccccc2)C=C[C@@H]1Oc1ccc(C)cc1)=NO[C@@H](C)c1cn([C@H](CO)Cc2ccccc2)nn1 from this test.
inactive

Per the records of this test, what outcome belongs to [N-]=[N+]=Nc1ccccc1C[C@@]1(C(N)=O)N=C(c2ccc(OCCCO)cc2)O[C@@H]1c1ccccc1 ?
active

Record request — test call for CO[C@@H]1COC(=O)CC=C[C@@H](C)COC(=O)[C@H](COCc2ccccc2)NC(=O)CC=C[C@H]1C
inactive

Answer briefly: the call reported for COc1ccc(OC[C@H]2Cc3c(-c4ccccc4)nc4c(c3CO2)CN(CCOc2ccccc2)CC4)cc1 in this assay.
inactive
